Molecular target: UniProtKB P48736
Sequence (P48736 whole entry, species assumed): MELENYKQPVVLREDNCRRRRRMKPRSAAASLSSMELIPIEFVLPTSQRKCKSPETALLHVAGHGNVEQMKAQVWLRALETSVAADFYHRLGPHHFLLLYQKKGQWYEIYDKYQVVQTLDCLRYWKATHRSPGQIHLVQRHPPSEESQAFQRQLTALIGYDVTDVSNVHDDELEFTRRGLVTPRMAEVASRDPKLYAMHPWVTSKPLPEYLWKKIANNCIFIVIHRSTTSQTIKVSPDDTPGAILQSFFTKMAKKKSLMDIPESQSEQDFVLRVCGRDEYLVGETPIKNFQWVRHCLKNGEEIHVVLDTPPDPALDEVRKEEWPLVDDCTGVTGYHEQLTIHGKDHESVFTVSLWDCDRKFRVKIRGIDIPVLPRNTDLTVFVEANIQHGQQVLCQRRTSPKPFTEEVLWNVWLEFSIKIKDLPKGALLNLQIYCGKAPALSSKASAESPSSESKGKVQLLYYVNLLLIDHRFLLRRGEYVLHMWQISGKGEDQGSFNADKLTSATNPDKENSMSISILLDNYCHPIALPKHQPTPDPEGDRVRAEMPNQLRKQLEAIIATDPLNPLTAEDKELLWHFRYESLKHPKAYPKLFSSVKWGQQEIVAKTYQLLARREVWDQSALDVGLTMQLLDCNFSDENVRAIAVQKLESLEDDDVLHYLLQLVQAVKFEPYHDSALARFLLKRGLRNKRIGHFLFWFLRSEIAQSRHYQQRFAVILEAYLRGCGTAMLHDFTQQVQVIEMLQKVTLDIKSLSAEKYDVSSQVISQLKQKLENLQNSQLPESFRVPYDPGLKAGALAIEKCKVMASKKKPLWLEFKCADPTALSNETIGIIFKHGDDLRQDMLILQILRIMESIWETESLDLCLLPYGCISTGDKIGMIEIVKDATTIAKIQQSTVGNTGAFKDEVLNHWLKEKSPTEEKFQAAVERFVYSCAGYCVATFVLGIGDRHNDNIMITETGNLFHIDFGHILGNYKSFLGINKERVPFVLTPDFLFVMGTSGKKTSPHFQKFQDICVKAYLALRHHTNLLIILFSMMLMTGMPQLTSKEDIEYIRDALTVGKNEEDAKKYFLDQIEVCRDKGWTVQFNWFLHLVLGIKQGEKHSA
Experiment: PI3K γ kinase assay
Type: biochemical
Conditions: Table 2
pIC50: −log10 of the molar value.
Reported pIC50 values for a set of molecules
MEASURE_NAME: pIC50

1) Nc1ncnc2c1c(-c1cc3cc(O)ccc3[nH]1)nn2Cc1cccnc1 [Compound 38] | < 6.30
2) COc1ccc2cc(-c3nn(C4CCOCC4)c4ncnc(N)c34)[nH]c2c1 [Compound 59] | < 6.30
3) Nc1ncnc2c1c(-c1cc3cc(O)ccc3[nH]1)nn2C1CC(O)C1 (stereo not drawn) [Compound 54] | < 6.30
4) CC(C)n1nc(-c2cc3cccc(Cl)c3[nH]2)c2c(N)ncnc21 [Compound 50] | 6.30 to 7.00
5) COc1cccc2cc(-c3nn(C4CCN(C(=O)C5CC5)CC4)c4ncnc(N)c34)[nH]c12 [Compound 66] | < 6.30
6) CC(C)n1nc(-c2cc3cc(O)cc(Cl)c3[nH]2)c2c(N)ncnc21 [Compound 15] | 7.30 to 7.60
7) CC(C)N1CCC(n2nc(-c3cc4cc(O)ccc4[nH]3)c3c(N)ncnc32)CC1 [Compound 55] | < 6.30
8) Nc1ncnc2c1c(-c1cc3cccc(Cl)c3[nH]1)nn2C1CCOCC1 [Compound 51] | 6.30 to 7.00
9) CC(C)n1nc(-c2cc3ccc(O)cc3[nH]2)c2c(N)ncnc21 [Compound 21] | 6.30 to 7.00

###

Assay: Phase I clinical trial: plasma pharmacokinetics
Assay type: in vivo, human
Details: human, plasma, oral; 20 mg Q3D
MEASURE_NAME: Cmax (nM)

1. CC(C)n1nc(-c2ccc3oc(N)nc3c2)c2c(N)ncnc21 [compound A] | 400

###

Biological target: mTOR (Homo sapiens)
Construct: purchased Invitrogen
Assay: mTOR kinase inhibition assay
Format: biochemical
Conditions: Table 1; read-out: mTOR IC50
MEASURE_NAME: IC50

1. Nc1nc2cc(-c3nn(C4CCOCC4)c4ncnc(N)c34)ccc2o1 [Compound 5] | < 100 nM
2. COC(=O)Nc1noc2ccc(-c3nn(C(C)C)c4ncnc(N)c34)cc12 [Compound 19] | < 10000 nM
3. CC(=O)Nc1noc2cc(-c3nn(C(C)C)c4ncnc(N)c34)ccc12 [Compound 11] | < 1000 nM
4. CC(CO)n1nc(-c2ccc3oc(N)nc3c2)c2c(N)ncnc21 (stereo not drawn) [Compound 23] | < 100 nM
5. CC(=O)Nc1nc2cc(-c3nn(C(C)C)c4ncnc(N)c34)ccc2o1 [Compound 2] | < 100 nM
6. Nc1nc2cc(-c3nn(C4CCC(N5CCOCC5)CC4)c4ncnc(N)c34)ccc2o1 (stereo not drawn) [Compound 6] | < 100 nM
7. CC(=O)N1CCC(n2nc(-c3ccc4oc(N)nc4c3)c3c(N)ncnc32)CC1 [Compound 7] | < 100 nM
8. Cc1nc(N)c2c(-c3ccc4oc(N)nc4c3)nn(C(C)C)c2n1 [Compound 21] | < 1000 nM
9. CC(C)n1cc(-c2ccc3oc(N)nc3c2)c2c(N)ncnc21 [Compound 8] | < 100 nM

###

Test: Phase I clinical trial: plasma pharmacokinetics
Assay type: in vivo, human
Settings: human, plasma, oral; 10 mg Q5D
Description: Adult patients with histologically confirmed advanced solid tumors were enrolled in a 3+3 dose escalation Phase I study evaluating 3 intermittent schedules of administration for compound A: QW (once weekly), QD×3d QW (3 days on 4 days off), and QD×5d QW (5 days on 2 days off), in comparison with daily dosing (QD). Safety, maximum tolerated dose (MTD), pharmacokinetics (PK) and preliminary antitumor activity were evaluated.
MEASURE_NAME: Cmax (nM)

1. CC(C)n1nc(-c2ccc3oc(N)nc3c2)c2c(N)ncnc21 | 250
